pIC50 listing for selected compounds.
# System: GES1
# Assay info: Antiproliferative activity against human GES1 cells assessed as inhibition of cell proliferation measured after 72 hrs by MTT assay
# Format: cell-based
# Run conditions: GES1, 72 h
Note on units: pIC50 is unitless, being -log10 of a concentration expressed in mol/L.

A selection of reference data follows.
{"Line notation": "Cc1nc2nc(SCc3ccc(Cl)cc3)nn2c(Nc2cc(-c3ccccc3)[nH]n2)c1C", "pIC50": 4.33}
{"Line notation": "O=c1[nH]cc(F)c(=O)[nH]1", "pIC50": 5.61}
{"Line notation": "Cc1cc(Nc2cc(-c3ccccc3)[nH]n2)n2nc(SCc3cc(=O)oc4c3ccc3ccccc34)nc2n1", "pIC50": 4.54}
{"Line notation": "Cc1cc(Nc2ccn(Cc3cccc4ccccc34)n2)n2nc(SCc3ccc(Br)cc3)nc2n1", "pIC50": 4.52}
{"Line notation": "Cc1cc(Nc2ccn(Cc3nc(C)c4ccccc4n3)n2)n2nc(SCc3ccc(Br)cc3)nc2n1", "pIC50": 4.43}
{"Line notation": "Cc1ccc(CSc2nc3nc(C)cc(Nc4cc(-c5ccccc5)[nH]n4)n3n2)cc1", "pIC50": 4.44}

*Q* Entry Cc1cc(Nc2cc(-c3ccccc3)[nH]n2)n2nc(SCc3ccc(Br)cc3)nc2n1 has what pIC50?
*A* 4.41

*Q* # input compound: Cc1cc(Nc2cc(-c3ccccc3)[nH]n2)n2nc(SCc3nc4ccccc4[nH]3)nc2n1 ; wanted: its pIC50
*A* 4.56

*Q* Would you mind telling me what pIC50 value was observed for Cc1cc(Nc2cc(-c3ccccc3)[nH]n2)n2nc(SCc3csc4ccccc34)nc2n1 ?
*A* 4.53

Values from ChEMBL document CHEMBL4819020
